test-protocol: Solubility of SR13668 in various solvents
Assay type: physicochemical
reported-conditions: organic solvent or mixture, thermodynamic from solid; Ethanol; RT; UV
assay-metric: solubility (µg/mL)
Unit µg/mL implied. Number only.

Tell me solubility reported for CCOC(=O)c1ccc2[nH]c3c(OC)c4[nH]c5ccc(C(=O)OCC)cc5c4cc3c2c1
148

* * *

test-protocol: Solubility of SR13668 in various solvents
Type: physicochemical
reported-conditions: oil or lipid, thermodynamic from solid; Sunflower Oil; RT; HPLC
assay-metric: solubility (µg/mL)
Unit µg/mL implied. Number only.

Tell me solubility reported for CCOC(=O)c1ccc2[nH]c3c(OC)c4[nH]c5ccc(C(=O)OCC)cc5c4cc3c2c1 [SR13668]
66

All values here come from patent US20120184590A1.
